Tested on: SK-OV-3 ovarian
Assay: NCI tumour cell line growth inhibition, 48 h
For each of the compounds below, state its GI50.

A selection of reference data follows.
GI50 reported for this compound CC(C)c1ccc(-c2cc(-c3cn[nH]c3-c3ccccn3)ccn2)cc1 : > 23.4 µM

GI50 reported for this compound CC/C=C\C[C@H](O)C/C=C1/C(=O)C=C[C@@H]1C/C=C\CCCC(=O)OC : 5.37 µM

GI50 reported for this compound CCNCCNc1cc(-c2ccc(C(F)(F)F)cc2)c(C#N)c2nc3ccccc3n12 : 1.66 µM

GI50 reported for this compound C=CCCCCC/C=C\[C@@H](O)C#CC#C/C=C/CO : > 100 µM

GI50 reported for this compound O=c1cc(NCC(O)CN2CCCC2)n(Cc2ccccc2)c(=O)n1Cc1ccccc1 (stereo not given) : > 100 µM

For each of the items listed, what is its GI50?
1. CCOC(=O)C1CCN(S(=O)(=O)/N=C2/NC(=O)NC2=C(Cl)Cl)CC1
2. C=C(C)[C@@H]1CC[C@]2(CO)CC[C@]3(C)[C@H](CC[C@@H]4[C@@]5(C)C=C(C#N)C(=O)C(C)(C)[C@@H]5CC[C@]43C)[C@@H]12
3. CCc1nc2cc(F)c(/C=C/C(=O)NO)cc2c(=O)n1CCc1ccccc1
4. COc1ccc(/C=C/c2c(C(=O)/C=C/c3ccccc3)c(C)nc3ccccc23)cc1
5. COc1ccc(C(=O)c2cc(C)c(OC)c(C)c2)cc1OC(=O)CCl
6. Cc1ccc(NC(=O)c2cccc(C(C)(C)C#N)c2)cc1Nc1ccc2ncn(C)c(=O)c2c1
7. COc1ccc(C[N+](C)(C)N)cc1OC
8. c1ccc(Sc2ccc(Cc3nc4cc5ccccc5cc4[nH]3)cc2)cc1

Solution:
["9.94 µM", "2.72 µM", "0.263 µM", "3.13 µM", "< 0.0238 µM", "> 100 µM", "> 100 µM", "3.27 µM"]

For each of the items listed, what is its GI50?
1. Cc1cc2ncnn2cc1Nc1ncc2c(n1)n(C1CCOCC1)c(=O)n2C
2. COc1cc2ncnc(-n3ncc4cc(NC(=O)Nc5ccccc5)ccc43)c2cc1OC

Solution:
1: 2.15 µM; 2: 0.42 µM

====

Tested on: SNB-19 CNS
Assay: NCI tumour cell line growth inhibition, 48 h
For each of the molecules below, state its TGI.

TGI reported for this molecule COc1ccc2c3c([nH]c2c1[N+](=O)[O-])C(C)N(C)CC3 (stereo not drawn) : > 100 µM

TGI reported for this molecule Clc1ccc(-c2cc3nc4ccccc4nc3o2)cc1 : > 100 µM

Now, please, on to the next molecule.
TGI reported for this molecule C(/C=C/Nc1ccc(Oc2ccccc2)cc1)=Nc1ccc(Oc2ccccc2)cc1 : 31.3 µM

====

For each of the compounds below, state its TGI.
Tested on: EKVX NSCLC
Test: NCI tumour cell line growth inhibition, 48 h

A selection of reference data follows.
TGI reported for this compound CC(C)OC(=O)/C=C/C(=O)O/C=C/[N+](=O)[O-] : > 100 µM

TGI reported for this compound O=C(Nc1n[nH]c2cc(-c3ccccc3)ccc12)C1CC1 : > 25 µM

TGI reported for this compound CCCC(CCC)NCC(O)c1cc(-c2ccc(C(F)(F)F)cc2)nc(C(F)(F)F)c1 (stereo unspecified) : 3.81 µM

For each of the items listed, what is its TGI?
1. COc1cc2ncnc(-n3ncc4cc(NC(=O)Nc5ccccc5)ccc43)c2cc1OC
2. CC(=O)Oc1ccc2cc(-c3ccccc3OC(C)=O)c(=O)oc2c1
3. COc1cc(OC)c2c(C)cc(=O)oc2c1
4. CCOC(=O)CC(C)C1(C(=O)OCC)CCCCC1=O (stereo unspecified)

Solution:
["7.3 µM", "> 100 µM", "> 100 µM", "> 100 µM"]

For each of the items listed, what is its TGI?
1. CC1=[N+]([O-])c2ccccc2C(=O)C1=O
2. CCN1CCN(c2nc3ccccc3c3c2CCOc2ccccc2-3)CC1
3. Cc1[nH]c(=O)nc2[nH][nH]c(=O)c12
4. CC1(C)OC(=O)N(c2ccccc2)C12C=Cc1cc([N+](=O)[O-])ccc1O2 (stereo unspecified)
5. Clc1ccc(C[P+](c2ccccc2)(c2ccccc2)c2ccccc2)c(Cl)c1
6. C(/C=C/Nc1ccc(Oc2ccccc2)cc1)=Nc1ccc(Oc2ccccc2)cc1
7. COC(=O)c1cc2c(cc1Cl)Sc1nnc(Nc3ccc(C)cc3)n1S2(=O)=O

Solution:
1: > 100 µM; 2: > 100 µM; 3: > 100 µM; 4: 98.7 µM; 5: 31.4 µM; 6: 34.7 µM; 7: 27.7 µM

For each of the items listed, what is its TGI?
1. COc1cc2cc3c4cc(OC)c(OC)cc4cc[n+]3c(C)c2cc1OC (tested in a mixture with another compound)
2. O=Cc1ccccc1COC(=O)c1cc(C(=O)OCc2ccccc2C=O)c(C(=O)OCc2ccccc2C=O)cc1C(=O)OCc1ccccc1C=O
3. COc1ccc2c3c([nH]c2c1[N+](=O)[O-])C(C)N(C)CC3 (stereo unspecified)
4. CCc1nc(N)nc(N)c1-c1ccc(NC)c([N+](=O)[O-])c1
5. O=C(O)CNS(=O)(=O)c1ccc(NC(=O)c2ccc([N+](=O)[O-])cc2)cc1

Solution:
["> 100 µM", "> 100 µM", "> 100 µM", "> 100 µM", "> 100 µM"]

For each of the items listed, what is its TGI?
1. O=C(c1ccco1)N(C(=S)OCCOc1ccccc1)c1ccccc1
2. CCOC(=O)/C(C)=C(/O)C(=O)OCC
3. Cc1cc(NC(=S)SCc2ccc(F)cc2)c([N+](=O)[O-])cc1C
4. COC(=O)C(Cc1nc2ccccc2[nH]c1=O)C(NO)C(=O)Nc1c(Cl)cc([N+](=O)[O-])cc1Cl (stereo unspecified)
5. COc1c2c(cc3c1OCO3)[C@]13C=C[C@H](OC)C[C@H]1N(C2)CC3O (stereo partly specified)
6. CCC(C)NC1=NCC(C)S1 (stereo unspecified)
7. CN(C)CC1CCCC(CN(C)C)C1OC(=O)c1ccccc1 (stereo unspecified)
8. CC(=O)[C@@H](C)C(=O)N1C(=O)OC[C@@]12[C@@H]1CC[C@@H](C1)C2(C)C

Solution:
52.4 µM
> 100 µM
91.3 µM
> 100 µM
> 100 µM
> 100 µM
> 100 µM
> 100 µM

====

For each of the molecules below, state its TGI.
Test system: UACC-62 melanoma
Assay: NCI tumour cell line growth inhibition, 48 h

A selection of reference data follows.
TGI reported for this molecule COc1cccc2c1C(=O)c1c(O)c3c(c(O)c1C2=O)CC(O)(C(=O)CO)CC3OC1CC(N2CCOCC2C#N)C(O)C(C)O1 (stereo not given) : < 0.0001 µM

TGI reported for this molecule CCC(C)NC1=NCC(C)S1 (stereo not given) : > 100 µM

TGI reported for this molecule CC(C)OC(=O)/C=C/C(=O)O/C=C/[N+](=O)[O-] : 84.7 µM

For each of the items listed, what is its TGI?
1. Cn1c([C@H](C#N)c2ncccc2[N+](=O)[O-])nc2ccccc21
2. COc1ccc(C(=O)c2cc(C)c(OC)c(C)c2)c(OC)c1O

Solution:
1: > 100 µM; 2: > 100 µM

====

Test system: NCI-H23 lung
Assay: NCI tumour cell line growth inhibition, 48 h
METRIC: TGI

A selection of reference data follows.
TGI reported for this compound C=CCCCCC/C=C\[C@@H](O)C#CC#C/C=C/CO : > 100 µM

TGI reported for this compound C/C(=N\Nc1ccc(Cl)cn1)c1ccc2ccccc2n1 : > 100 µM

TGI reported for this compound O=C(N/N=C/c1cc(Br)ccc1O)N/N=C/c1cc(Br)ccc1O : > 100 µM

TGI reported for this compound Cc1ccc2c3c1O[C@H]1c4[nH]c5ccccc5c4C[C@@]4(O)[C@@H](C2)N(CC2CC2)CC[C@]314 : 39.5 µM

TGI reported for this compound Cc1nnc(NS(=O)(=O)c2ccc(N=Nc3cc(N=Nc4ccc(S(=O)(=O)Nc5nnc(C)s5)cc4)c4c(NC(=O)C(Cl)Cl)cccc4c3OC(=O)C(Cl)Cl)cc2)s1 (tested in a mixture with another compound) : 49.5 µM

For each of the items listed, what is its TGI?
1. O=C1CC(c2cccc([N+](=O)[O-])c2)C2(C(=O)NC(=O)NC2=O)C(c2cccc([N+](=O)[O-])c2)C1 (stereo not drawn)
2. CN(C)CCC1(C2=CCCC2)CC/C(=C\c2ccc(Cl)cc2)C1=O (stereo not drawn)
3. CC(C)=CCC(O)[C@](C)(O)[C@H]1[C@H](O)C[C@@]2(C)[C@@H]3CCc4cc(O)c(OC5OC(CO)C(O)C(O)C5O)cc4C3(C)C(=O)C[C@]12C (stereo partly drawn)

Solution:
1: > 100 µM; 2: 29.3 µM; 3: > 100 µM
